Values compiled from patent US9758492B2.

# Tested target: Human IDO1 (Homo sapiens)
# Sequence (P14902 whole entry): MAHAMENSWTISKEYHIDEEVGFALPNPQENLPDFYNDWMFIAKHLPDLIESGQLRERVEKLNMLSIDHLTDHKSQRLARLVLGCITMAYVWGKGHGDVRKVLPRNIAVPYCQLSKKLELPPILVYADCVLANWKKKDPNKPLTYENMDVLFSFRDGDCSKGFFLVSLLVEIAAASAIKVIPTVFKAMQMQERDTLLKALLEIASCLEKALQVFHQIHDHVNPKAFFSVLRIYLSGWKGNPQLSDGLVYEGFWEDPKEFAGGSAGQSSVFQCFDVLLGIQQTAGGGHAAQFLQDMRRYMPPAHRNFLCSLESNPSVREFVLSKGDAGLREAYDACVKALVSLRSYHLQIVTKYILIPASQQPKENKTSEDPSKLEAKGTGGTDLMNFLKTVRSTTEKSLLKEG
# Test summary: IDO Kynurenine Assay with Human IDO1/HEK293 Cells
# Settings: read-out: HEK human IDO-1 (IC50)
Measure: IC50 (nM)

{"Molecule": "CC(C)CN(CC(C)C)c1ccc(-c2ccccc2-c2nnn[nH]2)cc1NC(=O)Nc1ccc(OC(F)F)cc1 [Example 453]", "Measure": "IC50", "Quantitative readout": 9.9}
{"Molecule": "CCOc1ccc(NC(=O)Nc2cc(-c3cc(F)ccc3C(=O)O)ccc2N(C2CC2)C2CC2)cc1 [Example 543]", "Measure": "IC50", "Quantitative readout": 7240}
{"Molecule": "Cc1ccc(NC(=O)Nc2cc(-c3ccccc3C(=O)O)cc(Cl)c2N(CC(C)C)CC(C)C)cc1 [Example 40]", "Measure": "IC50", "Quantitative readout": 10}
{"Molecule": "Cc1ccc(NC(=O)Nc2cc(-c3ccccc3C(=O)O)c(F)cc2N(CC(C)C)CC(C)C)cc1 [Example 425]", "Measure": "IC50", "Quantitative readout": 10}
{"Molecule": "CC(C)CN(c1cc(F)c(-c2cc(F)ccc2C(=O)O)cc1NC(=O)Nc1ccc2nccnc2c1)C1CCCCC1 [Example 403]", "Measure": "IC50", "Quantitative readout": 2.32}
{"Molecule": "CC(C)CN(c1cc(F)c(-c2cc(F)ccc2C(=O)O)cc1NC(=O)Nc1ccn(C)n1)C1CCCCC1 [Example 515]", "Measure": "IC50", "Quantitative readout": 4220}
{"Molecule": "Cc1c(Br)cc(NC(=O)Nc2cc(-c3cc(F)ccc3C(=O)O)ccc2N(CC(C)C)C2CCCCC2)cc1Br [Example 507]", "Measure": "IC50", "Quantitative readout": 2870}
{"Molecule": "O=C(Nc1ccc(C(F)(F)F)cc1F)Nc1cc(-c2ccccc2-c2nnn[nH]2)ccc1N(CCC(F)(F)F)Cc1ccccn1 [Example 303]", "Measure": "IC50", "Quantitative readout": 280}
{"Molecule": "CC(C)CN(CC(C)C)c1ccc(-c2ccc(Cl)cc2C(=O)O)cc1NC(=O)Nc1ccc(Cl)cc1F [Example 360]", "Measure": "IC50", "Quantitative readout": 20}
{"Molecule": "C=C(C)CN(CCCC(F)(F)F)c1ccc(-c2cc(F)ccc2C(=O)O)cc1NC(=O)Nc1ccc(C)cc1 [Example 419]", "Measure": "IC50", "Quantitative readout": 5.08}
{"Molecule": "CC(C)CN(c1ccc(-c2cc(F)ccc2C(=O)O)cc1NC(=O)Nc1ccnnc1)C1CCCCC1 [Example 401]", "Measure": "IC50", "Quantitative readout": 1180}
{"Molecule": "COc1cccc(-c2ccc(N(CC(C)C)CC(C)C)c(NC(=O)Nc3ccc(Cl)cc3F)c2)c1C(=O)O [Example 500]", "Measure": "IC50", "Quantitative readout": 20}
{"Molecule": "O=C(Nc1ccc(F)cc1F)Nc1cc(-c2ccccc2-c2nnn[nH]2)ccc1N(CCC(F)(F)F)Cc1ccc(F)cc1C(F)(F)F [Example 340]", "Measure": "IC50", "Quantitative readout": 40}
{"Molecule": "C=C(C)CN(CC(F)(F)F)c1ccc(-c2ccccc2-c2nnn[nH]2)cc1NC(=O)Nc1ccc(C)cc1 [Example 472]", "Measure": "IC50", "Quantitative readout": 9.13}
{"Molecule": "COC(C)(C)CCN(CCCC(F)(F)F)c1ccc(-c2ccccc2C(=O)O)cc1NC(=O)Nc1ccc(C)cc1 [Example 422]", "Measure": "IC50", "Quantitative readout": 1480}
